Molecular target: HLA-A*0201 on T2A2 cells (Homo sapiens, UniProt P04439, D140Y/D185E/D98H/E176V/E277Q/G131W/G231S/I119V/I121R/I166T/I218V/L300P/L318F/N151K/N90K/P208A/P217A/Q86G/Q94H/R138H/R169H/T345S)
Construct: T2A2 cells (1 × 10^6 cells/mL) resuspended in serum-free IMDM medium were seeded in 24-well plates; endogenous in cells; host or cells: T2A2 cells
Assay: T2A2 cell binding affinity assay
Details: T2A2 cells 1 × 10^6 cells/mL, 50 μg/mL peptide + 3 μg/mL β2-M, 37°C 18 h, HLA-A2 antibody BB7.2, flow cytometry; background MFI 131
measured.endpoint: MFI

>>> df
                             sequence_input  recorded_result
0  LMMPQTVTV [Rv2994-p223, predicted HLA-A2-restricted 9-mer peptide … from MTB efflux pump antigen Rv2994]              430
1  VLAADAVFV [Rv2459c-p469, predicted HLA-A2-restricted 9-mer peptide … from MTB efflux pump antigen Rv2459c]              440
2  WMSIGVFSV [Rv1819c-p122, predicted HLA-A2-restricted 9-mer peptide … from MTB efflux pump antigen Rv1819c]              177

* * *

Biological target: HLA-A*0201 on T2A2 cells (Homo sapiens, UniProt P04439, D140Y/D185E/D98H/E176V/E277Q/G131W/G231S/I119V/I121R/I166T/I218V/L300P/L318F/N151K/N90K/P208A/P217A/Q86G/Q94H/R138H/R169H/T345S)
Construct: T2A2 cells (1 × 10^6 cells/mL) resuspended in serum-free IMDM medium were seeded in 24-well plates; endogenous in cells; host or cells: T2A2 cells
Test: T2A2 cell binding affinity assay
Conditions: FI = [MFI of the peptide − MFI of the background]/[MFI of the background]; T2A2 cells, 50 μg/mL peptide + 3 μg/mL β2-M, 18 h
measured.endpoint: FI (fluorescence index)

>>> df
                             sequence_input  recorded_result
0  LLDEPTSAL [Rv0933-p186, predicted HLA-A2-restricted 9-mer peptide … from MTB efflux pump antigen Rv0933]             2.52
1  WMSIGVFSV [Rv1819c-p122, predicted HLA-A2-restricted 9-mer peptide … from MTB efflux pump antigen Rv1819c]             0.35
2  VLAADAVFV [Rv2459c-p469, predicted HLA-A2-restricted 9-mer peptide … from MTB efflux pump antigen Rv2459c]             2.36
3  SLADRLTVI [Rv0933-p208, predicted HLA-A2-restricted 9-mer peptide … from MTB efflux pump antigen Rv0933]             2.59

* * *

DC50 values for the sequences below.
Molecular target: peptide/HLA-A*0201 complex on T2A2 cells (Homo sapiens, UniProt P04439, D140Y/D185E/D98H/E176V/E277Q/G131W/G231S/I119V/I121R/I166T/I218V/L300P/L318F/N151K/N90K/P208A/P217A/Q86G/Q94H/R138H/R169H/T345S)
Construct: endogenous in cells; host or cells: T2A2 cells
Assay: Peptide/HLA-A*0201 complex stability assay
Assay type: binding
Details: time for loss of 50% of peptide/HLA-A*0201 complexes stabilized at 0 h, 50 μg/mL peptide, 18 h, brefeldin A 10 μg/mL 1 h, then 0, 2, 4, 6 h at 37°C, flow cytometry
measured.endpoint: DC50

In [3]: df
Out[3]:
                             sequence_input  measured_endpoint  recorded_result
0  SLADRLTVI [Rv0933-p208, predicted HLA-A2-restricted 9-mer peptide … from MTB efflux pump antigen Rv0933]               DC50             <2 h
1  GLDPLMENV [Rv1218c-p165, predicted HLA-A2-restricted 9-mer peptide … from MTB efflux pump antigen Rv1218c]               DC50            > 2 h
2  TLFKTIVGL [Rv2477c-p362, predicted HLA-A2-restricted 9-mer peptide … from MTB efflux pump antigen Rv2477c]               DC50            > 2 h
3  VLATGVTLV [Rv2209-p158, predicted HLA-A2-restricted 9-mer peptide … from MTB efflux pump antigen Rv2209]               DC50             >4 h
4  ALCEKVTII [Rv1218c-p200, predicted HLA-A2-restricted 9-mer peptide … from MTB efflux pump antigen Rv1218c]               DC50            > 4 h
5  YLLGGTVVV [Rv1877-p71, predicted HLA-A2-restricted 9-mer peptide … from MTB efflux pump antigen Rv1877]               DC50             >2 h
6  VLAADAVFV [Rv2459c-p469, predicted HLA-A2-restricted 9-mer peptide … from MTB efflux pump antigen Rv2459c]               DC50             >4 h
7                   ALDGLDLTV [Rv1218c-p24]               DC50             >4 h
8  LLDEPTSAL [Rv0933-p186, predicted HLA-A2-restricted 9-mer peptide … from MTB efflux pump antigen Rv0933]               DC50             <2 h
9  LLDEPSSGL [Rv1218c-p158, predicted HLA-A2-restricted 9-mer peptide … from MTB efflux pump antigen Rv1218c]               DC50             >4 h
